assayedTarget: human P-glycoprotein (Pgp or MDR 1) expressing membrane (Homo sapiens, UniProt P08183)
Construct: purchased Daiichi Pure Chemicals Co. No. 453228; host or cells: Sf9 insect cell membrane
Sequence (P08183 whole entry): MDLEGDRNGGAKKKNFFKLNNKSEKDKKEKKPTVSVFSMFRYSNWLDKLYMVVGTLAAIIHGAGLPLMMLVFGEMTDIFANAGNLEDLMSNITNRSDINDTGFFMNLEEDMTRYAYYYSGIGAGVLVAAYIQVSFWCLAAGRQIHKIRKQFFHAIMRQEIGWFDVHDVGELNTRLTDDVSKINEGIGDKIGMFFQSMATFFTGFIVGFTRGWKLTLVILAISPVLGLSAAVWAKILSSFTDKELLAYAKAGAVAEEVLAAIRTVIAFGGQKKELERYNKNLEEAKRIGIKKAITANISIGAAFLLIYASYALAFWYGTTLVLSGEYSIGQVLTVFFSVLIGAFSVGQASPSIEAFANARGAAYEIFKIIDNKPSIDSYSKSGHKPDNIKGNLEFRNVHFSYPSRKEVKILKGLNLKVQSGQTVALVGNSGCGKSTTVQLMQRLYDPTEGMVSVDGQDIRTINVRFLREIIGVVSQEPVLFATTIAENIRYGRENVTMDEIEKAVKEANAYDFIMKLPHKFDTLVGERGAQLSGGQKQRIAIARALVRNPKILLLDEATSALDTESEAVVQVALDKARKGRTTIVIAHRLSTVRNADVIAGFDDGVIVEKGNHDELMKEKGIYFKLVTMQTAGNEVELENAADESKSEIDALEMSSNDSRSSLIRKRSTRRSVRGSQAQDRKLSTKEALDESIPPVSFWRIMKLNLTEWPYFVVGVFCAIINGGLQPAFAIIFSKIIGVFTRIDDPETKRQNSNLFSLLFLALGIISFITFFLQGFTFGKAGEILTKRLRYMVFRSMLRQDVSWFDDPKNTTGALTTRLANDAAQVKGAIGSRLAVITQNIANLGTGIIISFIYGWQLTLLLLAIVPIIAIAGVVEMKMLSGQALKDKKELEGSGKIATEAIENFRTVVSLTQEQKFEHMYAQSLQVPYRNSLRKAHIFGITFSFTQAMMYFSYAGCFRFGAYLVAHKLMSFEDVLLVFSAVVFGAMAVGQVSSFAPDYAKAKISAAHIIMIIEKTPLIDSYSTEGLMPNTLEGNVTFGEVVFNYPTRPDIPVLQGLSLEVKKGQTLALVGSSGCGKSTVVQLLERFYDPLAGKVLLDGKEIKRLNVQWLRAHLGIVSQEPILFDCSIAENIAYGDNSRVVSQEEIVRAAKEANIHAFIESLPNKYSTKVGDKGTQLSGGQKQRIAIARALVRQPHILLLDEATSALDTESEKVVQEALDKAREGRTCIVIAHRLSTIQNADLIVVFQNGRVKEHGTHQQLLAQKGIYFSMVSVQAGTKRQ
experiment: [3H] ADP binding amount by vanadate method, suction cleaning on 96-well glass filter, P-glycoprotein-expressing membrane
Format: biochemical
setupConditions: substrate 0.05 mM; reaction time 5 minutes; 37° C.; background of control membrane subtracted; FIG. 4
measuredQuantity: [3H] ADP binding activity compared to P-glycoprotein-expressing membrane without substrate

Nc1nc2ncc(CNc3ccc(C(=O)N[C@@H](CCC(=O)O)C(=O)O)cc3)nc2c(=O)[nH]1 [Folate] : significant increase
CC[C@]1(O)C[C@@H]2CN(CCc3c([nH]c4ccccc34)[C@@](C(=O)OC)(c3cc4c(cc3OC)N(C)[C@H]3[C@@](O)(C(=O)OC)[C@H](OC(C)=O)[C@]5(CC)C=CCN6CC[C@]43[C@@H]65)C2)C1 : significant increase
CN(Cc1cnc2nc(N)nc(N)c2n1)c1ccc(C(=O)N[C@@H](CCC(=O)O)C(=O)O)cc1 [Methotrexate] : significant increase
